Provide the recorded In vitro activity (%) compared with native peptide: vs GIP for the entries that follow.
# test target: T1, human GIP receptor (human, UniProt P48546 22-466)
# T1 sequence (looked up): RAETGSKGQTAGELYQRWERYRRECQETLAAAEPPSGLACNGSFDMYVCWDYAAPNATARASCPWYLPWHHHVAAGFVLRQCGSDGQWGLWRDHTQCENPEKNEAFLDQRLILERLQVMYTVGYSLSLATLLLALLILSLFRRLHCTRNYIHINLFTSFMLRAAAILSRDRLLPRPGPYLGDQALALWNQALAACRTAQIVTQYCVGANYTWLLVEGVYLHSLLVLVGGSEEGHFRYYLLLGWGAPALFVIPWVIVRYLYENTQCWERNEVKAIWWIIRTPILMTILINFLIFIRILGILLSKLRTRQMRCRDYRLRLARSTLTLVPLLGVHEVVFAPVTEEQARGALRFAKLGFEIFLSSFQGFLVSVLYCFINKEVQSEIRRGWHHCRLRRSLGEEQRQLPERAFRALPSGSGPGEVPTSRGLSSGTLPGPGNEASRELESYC
# test protocol: cell-based or functional assay
Positions of bridges follow the written chain, without caps; N, C: chain ends. Non-standard residues stand in square brackets, D forms with d. No end group written: not given here. *: point of attachment. Acetyl(2-(4-imidazolyl)) = O=C(Cc1c[nH]cn1)*; Aib = CC(C)(N)C(=O)O

Example entries and their recorded answers appear below.
binder	observed result
{Acetyl(2-(4-imidazolyl))}-[Aib]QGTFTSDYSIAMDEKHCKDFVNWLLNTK (bridge 15-19; not fully specified) [triple agonist of SEQ ID NO: 60]	8.2%
{Acetyl(2-(4-imidazolyl))}-[Aib]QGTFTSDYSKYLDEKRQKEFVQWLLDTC (bridge 15-19; not fully specified) [triple agonist of SEQ ID NO: 82]	< 0.1%

Please find the next binder below.
### Prompt Need In vitro activity (%) compared with native peptide: vs GIP, item H[Aib]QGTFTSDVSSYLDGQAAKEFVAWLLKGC (not fully specified) [triple agonist of SEQ ID NO: 6]
### Response < 0.1%
